tested-on: Muscarinic acetylcholine receptor M1 (Homo sapiens)
method: human M1 muscarinic receptor agonists, primary screen, Fluo-8 calcium fluorescence, CHO-K1 cells, HTS (AID 588814);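 further: peak over basal fluorescence ratio within a 140 s kinetic read after compound addition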
settings: CHO-K1 hM1, Fluo-8 calcium fluorescence, agonist mode; at 3 µM; 0% DMSO, 100% acetylcholine EC100
In all, about 360,000 compounds went through this assay and about 1,200 (0.33%) were called active.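 How the source made its calls: active means activation above the run's mean compound activation plus 3 SD (cut at about 16% in these data); inactive means the rest.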 The full list was thinned out, with actives kept by preference.
In this exercise, the only acceptable responses are 1 (active), 0 (inactive)

Consider the following illustrative entries.
compound | tested-on | category
CC(=O)NC(CC(=O)Nc1nc(-c2ccccc2)c(C(C)=O)s1)c1ccccc1 (stereo not drawn) | Muscarinic acetylcholine receptor M1 (Homo sapiens) | 0
N#C/C(=C\c1ccc(N2CCOCC2)o1)C(=O)N1CCOCC1 | Muscarinic acetylcholine receptor M1 (Homo sapiens) | 0

GET /call?item= COc1ccc(CN2C(=O)C(CC(=O)NCCCCc3ccccc3)CC(C(=O)N3CCOCC3)=C2C)cc1 (stereo not drawn) returns the recorded outcome of this test.
0

Which outcome was assigned to "COc1ccc(CNC(=O)CN(C(=O)c2csnn2)c2cnc3ccccc3c2)cc1" in this test?
0

Hi, do you know how CCOC(=O)C1CCCN(CCSc2ccc(C)cc2)C1 (stereo not drawn) came out in this test?
0

Call for entry CCC(C(=O)Nc1ccc(C(C)C)cc1)c1ccccc1 (stereo not drawn) :
1
